I'd be grateful if you could share measured DC50 for these entries.
biological target: IRAK4 (Homo sapiens (Human)); assay: IRAK4 MSD degradation in OCI-LY10; assay type: cell-based; settings: OCI-LY10, 4 hrs, MSD; read-out: IRAK4 MSD degradation in OCI-LY10 at 4 hrs: Average external-Abs DC50

Reference set (3 entries):
COMPOUND: Cn1c(=O)n([C@@H]2CCC(=O)NC2=O)c2cccc(CCCOC3CCN(C[C@H]4CC[C@H](n5cc(NC(=O)c6cnn7ccc(N8CCOCC8)nc67)c(C(F)F)n5)CC4)CC3)c21
DC50: 10 to 100 nM
//
COMPOUND: Cn1c(=O)n(C2CCC(=O)NC2=O)c2cccc(CCN3CC4(CCN(C[C@H]5CC[C@H](n6cc(NC(=O)c7cnn8ccc(N9CCOCC9)nc78)c(C(F)F)n6)CC5)CC4)C3)c21 (some centres unmarked)
DC50: < 10 nM
//
COMPOUND: NCCCOCCCNC[C@H]1CC[C@H](n2cc(NC(=O)c3coc(-c4ccnc(NCC5CC5)c4)n3)c(C(F)F)n2)CC1
DC50: > 1000 nM

Give DC50 for all compounds that follow.
1. CC[C@H]1C(COc2ncc(C#C[C@H]3CC[C@H](CN(C)Cc4ccc(CCNc5cccc6c5C(=O)N(C5CCC(=O)NC5=O)C6=O)cc4)CC3)c3cc(C(N)=O)c(OC)cc23)NC(=O)[C@H]1F (some centres unmarked)
2. Cn1c(=O)n(C2CCC(=O)NC2=O)c2cccc(CCCOC3CCN(C[C@H]4CC[C@H](n5cc(NC(=O)c6cnn7cccnc67)c(C(F)F)n5)CC4)CC3)c21 (some centres unmarked)
3. CN(CCCOCCCc1cccc2c1n(C)c(=O)n2C1CCC(=O)NC1=O)C[C@H]1CC[C@H](n2cc(NC(=O)c3cccc(C(F)(F)F)n3)c(C(C)(C)O)n2)CC1 (some centres unmarked)

result:
1. 100 to 1000 nM
2. 100 to 1000 nM
3. 100 to 1000 nM

Provide reported DC50 for each item, in the same order as listed.
1. CN(CCOCCNCc1ccc2c(c1)n(C)c(=O)n2C1CCC(=O)NC1=O)C(=O)[C@H]1CC[C@H](n2cc(NC(=O)c3coc(-c4ccnc(NCC5CC5)c4)n3)c(C(F)F)n2)CC1 (some centres unmarked)
2. Cn1c(=O)n(C2CCC(=O)NC2=O)c2cccc(CCCOCCN3CCN(C[C@H]4CC[C@H](n5cc(NC(=O)c6coc(-c7ccnc(NCC8CC8)c7)n6)c(C(F)F)n5)CC4)CC3)c21 (some centres unmarked)

result:
< 10 nM
< 10 nM

----------
target: IRAK4 (Homo sapiens (Human), UniProt Q9NWZ3); assay: IRAK4 MSD degradation in OCI-LY10; assay type: cell-based; conditions: OCI-LY10, 4 hrs, MSD; read-out: IRAK4 MSD degradation in OCI-LY10 at 4 hrs: Average external-Abs DC50
Sequence (Q9NWZ3 whole entry): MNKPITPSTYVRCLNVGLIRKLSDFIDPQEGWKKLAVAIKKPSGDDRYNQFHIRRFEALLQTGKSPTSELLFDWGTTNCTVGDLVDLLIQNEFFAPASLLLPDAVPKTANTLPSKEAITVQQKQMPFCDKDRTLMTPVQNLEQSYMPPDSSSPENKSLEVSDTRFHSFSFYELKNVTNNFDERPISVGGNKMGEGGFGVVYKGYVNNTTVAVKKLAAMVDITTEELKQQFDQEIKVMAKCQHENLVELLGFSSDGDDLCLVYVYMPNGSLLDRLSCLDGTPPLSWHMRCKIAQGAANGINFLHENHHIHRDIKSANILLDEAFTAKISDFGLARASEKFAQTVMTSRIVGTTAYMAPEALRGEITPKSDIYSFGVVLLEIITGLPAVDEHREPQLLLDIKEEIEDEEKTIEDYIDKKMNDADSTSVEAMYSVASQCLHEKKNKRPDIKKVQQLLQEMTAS
ASSAY_ENDPOINT: DC50

Please state DC50 for every compound in the list that follows.
1. O=C1CCC(N2C(=O)c3cccc(CNC4CC5(CCN(C[C@H]6CC[C@H](n7cc(NC(=O)c8cnn9ccc(N%10C[C@H]%11C[C@@H]%10CO%11)nc89)c(C(F)F)n7)CC6)CC5)C4)c3C2=O)C(=O)N1 (some centres unmarked)
2. COc1cc(C(=O)N2CCC(CCCN(C)C[C@H]3CC[C@H](n4cc(NC(=O)c5coc(-c6ccnc(NCC7CC7)c6)n5)c(C(F)F)n4)CC3)CC2)ccc1NC(=O)[C@@H]1N[C@@H](CC(C)(C)C)[C@](C#N)(c2ccc(Cl)cc2F)[C@H]1c1cccc(Cl)c1F

result:
1: 10 to 100 nM; 2: > 1000 nM

Please supply DC50 for each of the following items, keeping them in order.
1. O=C1CCC(N2C(=O)c3cccc(NCc4ccc(CN5CCN(C[C@H]6CC[C@H](n7cc(NC(=O)c8cnn9ccc(N%10CCOCC%10)nc89)c(C(F)F)n7)CC6)CC5)cc4)c3C2=O)C(=O)N1 (some centres unmarked)
2. CC[C@@H]1[C@H](F)C(=O)N[C@@H]1COc1ncc(C#C[C@H]2CC[C@H](CN3CCC(OCCCc4cccc5c4n(C)c(=O)n5C4CCC(=O)NC4=O)CC3)CC2)c2cc(C(N)=O)c(OC)cc12 (some centres unmarked)
3. O=C1CCC(N2C(=O)c3cccc(NCCCOCCCN4CCC(n5cc(NC(=O)c6cnn7ccc(N8CCOCC8)nc67)c(C(F)F)n5)CC4)c3C2=O)C(=O)N1 (centres unmarked)

result:
1: > 1000 nM; 2: 10 to 100 nM; 3: 100 to 1000 nM
